All figures here come from ChEMBL document CHEMBL3988442.

The entries below are paired with their reported Percent Effect.
Test system: Wolbachia pipientis
ASSAY PROCEDURE: Anti-Wolbachia Cell-Based Screen
Type: functional
Parameters: scale not given: in the data most compounds retested in dose-response had high values
TEST CONDITIONS: 5 µM
The whole screen tested about 48,000 compounds, of which about 13,000 (27%) showed an effect of 50% or more. Some of the results follow.

COMPOUND | QUANTITY UNIT | Percent Effect
CSCCNC(=O)c1coc(COc2ccc(F)cc2)n1 | % | -7.576
O=C(O)c1csc(S(=O)(=O)Nc2cccc(OC(F)F)c2)c1 | % | -1.91
O=C(c1cc[nH]n1)N1CCOCC2(C1)CN(c1ccccc1)C(=O)CO2 (stereo not given) | % | 99
Cc1ccsc1CNC(=O)Nc1ccn(CCN2CCOCC2)n1 | % | -52.79
Cc1ccc(C(=O)Nc2ccn(CCC(N)=O)n2)cc1 | % | 10.52
CN(Cc1ccccc1)CC(O)Cn1cnc2ccsc2c1=O (stereo not given) | % | -0.02665
Cc1ccc(CN2CC[C@H]3CO[C@H](CN(C)Cc4ccco4)[C@H]3C2)s1.O=C(O)C(F)(F)F.O=C(O)C(F)(F)F | % | 10.16
Cc1ccc(CN2CC[C@@H]3[C@@H](CO[C@H]3CN3CCN(C)CC3)C2)s1.O=C(O)C(F)(F)F.O=C(O)C(F)(F)F.O=C(O)C(F)(F)F | % | 97.55
CN(Cc1cccnc1)C[C@@H]1OC[C@H]2CN(Cc3ccoc3)CC[C@H]21.O=C(O)C(F)(F)F.O=C(O)C(F)(F)F.O=C(O)C(F)(F)F | % | 6.292
O=C(Cc1ccccc1Cl)Nc1ccn(CCN2CCOCC2)n1 | % | -48.65
COCc1nc2cc(NCc3nc(C)cs3)ccc2o1 | % | 14.28
CN1CCN(C[C@@H]2OC[C@H]3CN(CCc4ccccc4)CC[C@H]32)CC1.O=C(O)C(F)(F)F.O=C(O)C(F)(F)F.O=C(O)C(F)(F)F | % | 108.2
CCc1ccc(O)c(C(=O)N2CCN(CC(=O)N3CCCCC3)CC2)c1 | % | -4.126
CCn1ccc(NC(=O)c2cc(C)on2)n1 | % | 120
CC(=O)NCCNCC1(O)CCCN(CCC2CCCCC2)C1=O (stereo not given) | % | -25.88
CCN(CC)S(=O)(=O)c1ccc(CNC(=O)c2cc(C)on2)cc1 | % | 15.58
CCN(Cc1noc(C)n1)C(=O)C(c1ccccc1C)N(C)C (stereo not given) | % | 20.53
Cc1cc(CNC(=O)CCCN2CCCCC2)n(C)n1 | % | -11.62
CC(C)CN1CC2(CCN(C(=O)C3CNC(=O)N3)CC2)CC1=O (stereo not given) | % | -19.59
CN1CCN(C[C@H]2OC[C@@H]3CCN(C(=O)c4cnccn4)C[C@@H]32)CC1.O=C(O)C(F)(F)F.O=C(O)C(F)(F)F | % | -7.535

====

System: Wolbachia pipientis
ASSAY PROCEDURE: Anti-Wolbachia Cell-Based Screen
Type: functional
Set-up: scale not given: in the data most compounds retested in dose-response had high values
TEST CONDITIONS: 5 µM
Among all 48,000 compounds or so, about 13,000 (27%) showed an effect of 50% or more. Some of the results follow.
The entries below are paired with their reported Percent Effect.

COMPOUND | Percent Effect / %
N#Cc1cccc(S(=O)(=O)CCN2CCOC2=O)c1 | -9.929
Cc1cc(C)c2ncn(CC(C)(C)CO)c(=O)c2c1 | 2.019
CC1(C)CNC(=O)c2nc(C3CCN(C(=O)C4CC4)CC3)[nH]c2C1 | -1.461
N#CCCn1cnc2c(F)cc(Br)cc2c1=O | 102.6
O=C(NS(=O)(=O)Cc1cc(-c2ccccc2)no1)C1CCOCC1 | -7.495
O=C(CC1CCCO1)NS(=O)(=O)Cc1cc(-c2ccccc2)no1 (stereo not drawn) | 94.25
Cc1c[nH]c(CN2CCOC(c3ccc(Cl)c(Cl)c3)C2)c(C)c1=O (stereo not drawn) | 94.99
CCNC(=O)[C@@H]1C[C@@H](n2cc(CC3CCCCC3)nn2)CN1 | 1.299
Cc1ncc(CN2CCC(n3cc(-c4ccc(F)cc4)nn3)CC2)cn1 | 6.515
Cc1cc(C)c(CNC(=O)NCC2CCCO2)c(=O)[nH]1 (stereo not drawn) | -10.27
CCNC(=O)[C@@H]1C[C@@H](n2cc(CN(CC)CC)nn2)CN1 | -7.284
O=C(NCc1cc(-c2ccccc2)no1)NCC1CCCO1 (stereo not drawn) | 63.77
CC1(C)CC1C(=O)NS(=O)(=O)Cc1cc(-c2ccccc2)no1 (stereo not drawn) | -6.027
N#CCCCn1cnc2c(F)cc(Br)cc2c1=O | 100.3
CC(C)N(CCS(C)(=O)=O)Cc1csc(Cc2ccc(Cl)cc2)n1 | -7.743
c1ccc(-c2cc(CN3CCC(c4ccn[nH]4)CC3)on2)cc1 | -18.74
O=C(CN1CCCC(c2noc(C3CC3)n2)C1)N1CCCC1 (stereo not drawn) | -17.34
CC(C(=O)NS(=O)(=O)Cc1cc(-c2ccccc2)no1)C1CC1 (stereo not drawn) | -15.76
COc1cc2ccn(CCS(C)(=O)=O)c(=O)c2cc1F | 3.704
Cc1cc(C)c2ncn(CCC(C)O)c(=O)c2c1 (stereo not drawn) | -16.19
O=C(O)C(F)(F)F.O=S(=O)(NCC1OCCc2cn(CC3CCOCC3)nc21)C1CC1 (stereo not drawn) | -11.9
Cc1c[nH]c(CN2CCOC(c3ccc(Cl)cc3)C2)c(C)c1=O (stereo not drawn) | 100.9
CNC(=O)[C@@H]1C[C@@H](n2cc(-c3ccc(CN4CC=CC4)cc3)nn2)CN1 | 109.8
